- Assay summary: Tissue distribution and pharmacokinetics following IP administration to normal rats
- Format: in vivo, SD rats
- Settings: male, SD, rat, plasma, 10 mg/kg IP
Measure: Cmax (ng/mL)
Answers are plain numbers, in ng/mL.

Molecule	Cmax [ng/mL]
Cc1cc(OCC(=O)O)cc(C)c1Cc1ccc(O)c(C(C)C)c1 [Compound 17, reference compound]	3490

# evaluate next
So what does the record say about Cmax for Cc1cc(OCP(=O)(O)O)cc(C)c1Cc1ccc(O)c(C(C)C)c1 ?
26000

* * *

- Target: human thyroid hormone receptors TRβ1 (Homo sapiens, UniProt P10828)
- Construct: made in house; host or cells: Sf9 insect cells (baculovirus)
- Sequence (P10828 1-461): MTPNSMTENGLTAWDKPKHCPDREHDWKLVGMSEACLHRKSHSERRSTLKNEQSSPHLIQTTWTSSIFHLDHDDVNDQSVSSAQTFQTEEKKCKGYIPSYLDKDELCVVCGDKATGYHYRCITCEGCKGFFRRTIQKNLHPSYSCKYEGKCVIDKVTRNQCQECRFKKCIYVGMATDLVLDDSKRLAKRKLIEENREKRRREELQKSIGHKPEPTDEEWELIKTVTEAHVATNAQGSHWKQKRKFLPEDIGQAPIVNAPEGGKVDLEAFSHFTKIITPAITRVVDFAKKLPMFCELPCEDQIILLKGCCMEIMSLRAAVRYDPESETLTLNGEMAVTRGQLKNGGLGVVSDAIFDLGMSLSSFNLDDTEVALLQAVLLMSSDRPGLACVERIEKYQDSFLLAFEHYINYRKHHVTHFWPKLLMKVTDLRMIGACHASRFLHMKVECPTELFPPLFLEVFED
- Sequence (P19793 1-462 partner): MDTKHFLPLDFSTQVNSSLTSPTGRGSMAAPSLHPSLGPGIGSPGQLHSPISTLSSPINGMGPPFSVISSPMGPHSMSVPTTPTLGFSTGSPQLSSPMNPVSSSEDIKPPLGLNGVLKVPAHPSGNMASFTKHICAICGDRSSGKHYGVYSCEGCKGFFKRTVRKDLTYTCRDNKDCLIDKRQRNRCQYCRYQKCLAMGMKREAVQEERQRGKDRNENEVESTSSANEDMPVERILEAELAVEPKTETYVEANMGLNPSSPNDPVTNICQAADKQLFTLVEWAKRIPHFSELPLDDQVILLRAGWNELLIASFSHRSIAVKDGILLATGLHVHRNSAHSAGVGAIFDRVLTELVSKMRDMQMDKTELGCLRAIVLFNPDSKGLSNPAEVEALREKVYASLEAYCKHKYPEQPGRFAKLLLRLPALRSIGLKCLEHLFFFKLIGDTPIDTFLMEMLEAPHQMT
- Assay summary: Receptor binding to TRβ1 (gel filtration and scintillation proximity assay, labeled T3)
- Description: Methods: Baculoviruses expressing TRα1, TRβ1 and RXRα were generated using cDNA and other reagents from Invitrogen (Carlsbad, Calif.). To produce TR/RXR heterodimer proteins, the sf9 insect cells were first grown to a density of 1-5×10^5 cells/mL. […] and RXRα baculovirus stocks were added to the cell culture with a ratio of 1 to 1 (multiplicity of infection=10). The cells were harvested three days after the infection. […]
Measure: pKi
One number for each entry, as −log10 of the molar value.

Recorded pKi for Cc1cc(OCP(=O)(O)O)cc(C)c1C(=O)c1ccc(O)c(C(C)C)c1 , please?
6.44
